# targetDesc: NEK7 (human) (UniProt Q8TDX7)
# Sequence (Q8TDX7 whole entry, looked up): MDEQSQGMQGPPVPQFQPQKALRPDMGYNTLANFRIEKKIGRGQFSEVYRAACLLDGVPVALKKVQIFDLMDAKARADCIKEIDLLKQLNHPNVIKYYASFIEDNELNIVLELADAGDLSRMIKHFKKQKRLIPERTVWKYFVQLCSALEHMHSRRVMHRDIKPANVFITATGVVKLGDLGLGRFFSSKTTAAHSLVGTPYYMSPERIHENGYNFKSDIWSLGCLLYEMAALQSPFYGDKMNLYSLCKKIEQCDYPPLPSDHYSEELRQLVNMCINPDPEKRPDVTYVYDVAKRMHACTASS
# assay: KINOMEscan competition binding
# particulars: compound 10.0 µM
experimentalReadout: kinase still bound, per cent of control (%)

Cc1cnc(-c2cnc(NCCNc3ccc(C#N)cn3)nc2-c2ccc(Cl)cc2Cl)[nH]1
98
COc1ccc(CNC(=O)Nc2ncc([N+](=O)[O-])s2)cc1
100
Cn1cc(C2=C(c3ccc(Cl)cc3Cl)C(=O)NC2=O)c2ccccc21
89
O=C1Nc2cc(Br)ccc2/C1=C1/Nc2ccccc2/C1=N\O
100

* * *

# System: FLT3 (human), P36888 [N841I]
# assay: KINOMEscan competition binding
# particulars: compound 10.0 µM
experimentalReadout: kinase still bound, per cent of control (%)

Cn1cc(C2=C(c3ccc(Cl)cc3Cl)C(=O)NC2=O)c2ccccc21
47
COc1ccc(CNC(=O)Nc2ncc([N+](=O)[O-])s2)cc1
89

(a) Cc1cnc(-c2cnc(NCCNc3ccc(C#N)cn3)nc2-c2ccc(Cl)cc2Cl)[nH]1
(b) O=C1Nc2cc(Br)ccc2/C1=C1/Nc2ccccc2/C1=N\O
IN: Hi there! Just curious which has the higher kinase still bound, per cent of control between a and b . // output: label of the selected item
OUT: a
(a: 75%, b: 0%)
